Each entry below lists one item and its recorded IC50 value.
# system-tested: GBA2 (Homo sapiens, UniProt Q9HCG7)
# Sequence (Q9HCG7 1-927): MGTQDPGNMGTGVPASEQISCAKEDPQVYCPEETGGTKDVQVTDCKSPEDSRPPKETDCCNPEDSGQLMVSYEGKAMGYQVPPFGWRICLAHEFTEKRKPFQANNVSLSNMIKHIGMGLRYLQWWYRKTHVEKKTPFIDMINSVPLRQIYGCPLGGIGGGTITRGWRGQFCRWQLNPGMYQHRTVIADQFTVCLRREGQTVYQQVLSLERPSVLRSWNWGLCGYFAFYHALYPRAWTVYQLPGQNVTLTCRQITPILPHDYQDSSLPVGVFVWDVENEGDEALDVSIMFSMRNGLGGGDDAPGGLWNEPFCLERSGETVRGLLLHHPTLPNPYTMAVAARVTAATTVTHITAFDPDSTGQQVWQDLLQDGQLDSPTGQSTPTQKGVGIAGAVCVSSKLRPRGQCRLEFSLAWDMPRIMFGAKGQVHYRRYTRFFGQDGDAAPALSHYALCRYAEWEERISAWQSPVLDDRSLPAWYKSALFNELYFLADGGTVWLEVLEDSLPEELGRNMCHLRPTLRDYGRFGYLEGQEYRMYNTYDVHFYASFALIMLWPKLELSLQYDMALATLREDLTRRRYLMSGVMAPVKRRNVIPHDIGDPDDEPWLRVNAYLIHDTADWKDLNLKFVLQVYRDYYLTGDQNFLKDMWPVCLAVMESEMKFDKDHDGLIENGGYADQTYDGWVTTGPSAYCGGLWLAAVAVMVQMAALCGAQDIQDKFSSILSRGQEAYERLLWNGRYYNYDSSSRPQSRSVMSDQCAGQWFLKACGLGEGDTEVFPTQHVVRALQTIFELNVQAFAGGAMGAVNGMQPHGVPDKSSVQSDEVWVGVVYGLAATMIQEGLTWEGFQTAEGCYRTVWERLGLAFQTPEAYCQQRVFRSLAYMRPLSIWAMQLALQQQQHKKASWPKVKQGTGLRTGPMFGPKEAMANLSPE
# assay-overview: Determination of IC50 values for inhibition of GBA2 in cell lysate
# Type: biochemical
# Set-up: host or cells: HEK293T (lentiviral transduction, puromycin selection); used as cellular homogenate
# condition-details: cellular homogenate of HEK293T cells overexpressing human GBA2, 250 μM 4-methylumbelliferone-β-D glucopyranoside, pH 5.5, 37° C., GCase inhibitor present; read-out: GBA2 IC50

Example results:
INSERT INTO measurements (molecule, result) VALUES
  ('C[C@@H]1[C@@H](O)[C@H](O)[C@@H](O)CN1C[C@H]1CC[C@@H](C2CC2)CC1 [Example 20]', '< 100 nM'),
  ('CCC1CCC(CN2C[C@H](O)[C@@H](O)[C@H](O)[C@H]2C)CC1 (stereo partly shown) [Example 5]', '< 100 nM'),
  ('C[C@@H]1[C@@H](O)[C@H](O)[C@@H](O)CN1CC1CCN(C(=O)NC2CCCCC2)CC1 [Example 110]', '100 to 1000 nM'),
  ('COCC1CCC(CN2C[C@H](O)[C@@H](O)[C@H](O)[C@H]2C)CC1 (stereo partly shown) [Example 19]', '100 to 1000 nM');

Prompt: Which IC50 reading was recorded for the molecule C[C@@H]1[C@@H](O)[C@H](O)[C@@H](O)CN1CC1CCN(c2ccc(F)cc2)CC1 [Example 85] ?
Response: < 100 nM

Prompt: Do the same for C[C@@H]1[C@@H](O)[C@H](O)[C@@H](O)CN1CCC1CCC(F)(F)CC1 [Example 30] please
Response: 100 to 1000 nM

Prompt: Same read-out for C[C@@H]1[C@@H](O)[C@H](O)[C@@H](O)CN1CC1CCN(c2ccc(C(F)(F)F)cc2)CC1 [Example 86] ?
Response: < 100 nM

Prompt: Likewise for C[C@@H]1[C@@H](O)[C@H](O)[C@@H](O)CN1C[C@H]1CC[C@@H](C(F)(F)F)CC1 [Example 11] ?
Response: < 100 nM

Prompt: # iterate: C=C[C@H]1CC[C@@H](CN2C[C@H](O)[C@@H](O)[C@H](O)[C@H]2C)CC1 [Example 6]
Response: < 100 nM

Prompt: Again, but for C[C@@H]1[C@@H](O)[C@H](O)[C@@H](O)CN1CC1CCN(C(=O)CC(C)(C)C)CC1 [Example 96]
Response: 100 to 1000 nM

Prompt: Follow-up entry: COC1CCC(C(=O)N2CCC(CN3C[C@H](O)[C@@H](O)[C@H](O)[C@H]3C)CC2)CC1 (stereo partly shown) [Example 104]
Response: 1000 to 25000 nM

Prompt: Let us now turn to C[C@@H]1[C@@H](O)[C@H](O)[C@@H](O)CN1CCC1CCN(c2ccccc2)CC1 [Example 89]
Response: < 100 nM

Prompt: Now consider C[C@@H]1[C@@H](O)[C@H](O)[C@@H](O)CN1CC1CCN(C(=O)C2CCCCC2)CC1 [Example 101] and answer again.
Response: 100 to 1000 nM

Prompt: Now the molecule CO[C@H]1CC[C@@H](CN2C[C@H](O)[C@@H](O)[C@H](O)[C@H]2C)CC1 [Example 17]
Response: 1000 to 25000 nM

Prompt: Same question, C[C@@H]1[C@@H](O)[C@H](O)[C@@H](O)CN1C[C@H]1CC[C@H](C(C)(C)C)CC1 [Example 10] this time
Response: < 100 nM

Prompt: Same thing, different molecule: C[C@@H]1[C@@H](O)[C@H](O)[C@@H](O)CN1C[C@H]1CCN(c2ccccc2)C1 [Example 113]
Response: < 100 nM
